B1: TMEM106C (parent)
chain: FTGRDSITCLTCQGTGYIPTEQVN

- Variants of: B1
- ASSAY COMMENT: protein stability index of a GFP-peptide fusion (GPS, HEK-293T) (PSI 1-6); higher = more stable;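 also: lentivirally expressed fusions sorted by FACS into six bins by GFP to DsRed ratio, PSI derived from sequencing read proportions per bin multiplied by bin number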
- ASSAY CONDITIONS: c terminus: a fixed tail appended
Output T for protein stability index not less than 2; output F otherwise.

[ask] For this variant, is measured protein stability index 2 or higher? Q13S
[reply] F

[ask] For this variant, is measured protein stability index 2 or higher? I7K
[reply] T

[ask] For this variant, is measured protein stability index 2 or higher? G16F
[reply] T

[ask] For this variant, is measured protein stability index 2 or higher? I7F
[reply] F

[ask] For this variant, is measured protein stability index 2 or higher? E21M
[reply] F

[ask] For this variant, is measured protein stability index 2 or higher? L10V
[reply] T

[ask] For this variant, is measured protein stability index 2 or higher? I7A
[reply] T

[ask] For this variant, is measured protein stability index 2 or higher? Y17H
[reply] T
